Reported values of IC50 for individual entries
# Tgt: PI3K delta (Homo sapiens, UniProt O00329)
# Sequence (O00329 whole entry): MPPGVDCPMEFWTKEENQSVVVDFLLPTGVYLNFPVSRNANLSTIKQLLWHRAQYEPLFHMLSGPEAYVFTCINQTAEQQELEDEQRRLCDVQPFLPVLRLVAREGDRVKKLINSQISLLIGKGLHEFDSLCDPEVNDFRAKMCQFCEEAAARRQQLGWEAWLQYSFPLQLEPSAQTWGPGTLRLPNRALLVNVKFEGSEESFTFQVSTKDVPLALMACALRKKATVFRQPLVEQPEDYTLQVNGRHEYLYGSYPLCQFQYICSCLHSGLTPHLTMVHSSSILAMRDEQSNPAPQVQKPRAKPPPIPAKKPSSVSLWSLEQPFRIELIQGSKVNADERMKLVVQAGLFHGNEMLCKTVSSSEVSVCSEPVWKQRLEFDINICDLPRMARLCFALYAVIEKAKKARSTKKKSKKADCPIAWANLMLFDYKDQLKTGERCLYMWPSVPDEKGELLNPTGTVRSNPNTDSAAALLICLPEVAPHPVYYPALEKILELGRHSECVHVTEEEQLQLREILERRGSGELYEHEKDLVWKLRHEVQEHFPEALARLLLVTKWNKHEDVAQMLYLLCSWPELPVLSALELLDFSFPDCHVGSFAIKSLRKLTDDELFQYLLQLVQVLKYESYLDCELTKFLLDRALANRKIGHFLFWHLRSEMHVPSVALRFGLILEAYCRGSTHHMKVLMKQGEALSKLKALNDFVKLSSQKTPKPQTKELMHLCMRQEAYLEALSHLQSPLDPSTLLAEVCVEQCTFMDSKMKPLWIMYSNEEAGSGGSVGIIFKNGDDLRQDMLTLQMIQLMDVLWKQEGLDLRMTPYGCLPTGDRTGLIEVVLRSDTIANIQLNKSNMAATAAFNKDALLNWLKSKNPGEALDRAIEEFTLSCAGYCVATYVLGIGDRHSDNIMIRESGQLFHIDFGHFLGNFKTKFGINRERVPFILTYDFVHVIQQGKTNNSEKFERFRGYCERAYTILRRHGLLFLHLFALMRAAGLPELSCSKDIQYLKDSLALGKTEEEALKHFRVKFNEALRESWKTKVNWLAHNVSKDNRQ
# Sequence (P27986 whole entry partner): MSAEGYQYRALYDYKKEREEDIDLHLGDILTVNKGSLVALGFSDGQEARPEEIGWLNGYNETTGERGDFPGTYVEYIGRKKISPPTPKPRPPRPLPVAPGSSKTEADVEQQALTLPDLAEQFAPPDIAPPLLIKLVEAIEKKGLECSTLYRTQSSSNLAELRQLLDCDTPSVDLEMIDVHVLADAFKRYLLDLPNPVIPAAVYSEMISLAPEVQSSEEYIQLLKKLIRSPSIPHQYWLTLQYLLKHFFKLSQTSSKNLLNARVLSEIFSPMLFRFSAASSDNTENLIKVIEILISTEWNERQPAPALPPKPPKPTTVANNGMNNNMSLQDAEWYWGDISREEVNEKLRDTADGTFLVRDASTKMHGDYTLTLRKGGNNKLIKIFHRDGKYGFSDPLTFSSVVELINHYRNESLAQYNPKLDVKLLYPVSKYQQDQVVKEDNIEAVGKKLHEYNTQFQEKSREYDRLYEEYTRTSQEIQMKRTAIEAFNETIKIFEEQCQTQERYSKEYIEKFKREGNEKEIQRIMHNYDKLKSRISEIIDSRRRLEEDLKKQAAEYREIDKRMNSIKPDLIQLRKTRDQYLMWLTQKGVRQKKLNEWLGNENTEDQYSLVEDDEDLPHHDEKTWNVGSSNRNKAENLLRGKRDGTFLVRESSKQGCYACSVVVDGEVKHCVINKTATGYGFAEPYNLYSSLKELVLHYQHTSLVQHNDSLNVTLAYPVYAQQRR
# Assay name: Luciferase-coupled chemiluminescence kinase assay (ATP consumption, KinaseGlo)

{"Cpd smiles": "Cn1c(C(=O)N2CC(O)C2)nc2c(N3CCC(n4c(=O)[nH]c5ccccc54)CC3)ncnc21", "IC50": "0.05 to 0.25 µM"}
{"Cpd smiles": "CCn1c(C(=O)N[C@H]2CC[C@H](O)CC2)nc2c(N3CCC(n4c(=O)[nH]c5ncccc54)CC3)ncnc21", "IC50": "< 0.05 µM"}
{"Cpd smiles": "CNC(=O)c1nc2c(N3CCC(n4c(=O)[nH]c5ccccc54)CC3)ncnc2n1C", "IC50": "0.5 to 1.5 µM"}
{"Cpd smiles": "C/C=C/c1nc2c(N3CCC(n4c(=O)[nH]c5ccccc54)CC3)ncnc2n1C", "IC50": "0.5 to 1.5 µM"}
{"Cpd smiles": "CCn1c(C(=O)NCC(C)C)nc2c(N3CCC(n4c(=O)[nH]c5ccccc54)CC3)ncnc21", "IC50": "< 0.05 µM"}
{"Cpd smiles": "CC(C)c1ccc2c(c1)C1(CCN(c3ncnc4c3nc(C(=O)NCC3CC3)n4C)CC1)C(=O)N2", "IC50": "0.5 to 1.5 µM"}
{"Cpd smiles": "Cn1c(C(=O)NCC2CC2)nc2c(N3CCC4(CC3)C(=O)Nc3c(Cl)cccc34)ncnc21", "IC50": "< 0.05 µM"}
{"Cpd smiles": "CCn1c(-c2cn[nH]c2)nc2c(N3CCC4(CC3)C(=O)Nc3ccccc34)ncnc21", "IC50": "< 0.05 µM"}

----------
# Tgt: PI3K delta (Homo sapiens, UniProt O00329)
# Assay name: Luciferase-coupled chemiluminescence kinase assay (ATP consumption, KinaseGlo)
# Assay type: biochemical

{"Compound": "Cn1cc(-c2nc3c(N4CCN(S(=O)(=O)c5ccc(Cl)c(Cl)c5)CC4)ncnc3n2C)cn1 [Compound 380]", "IC50": "50 to 250 nM"}
{"Compound": "Cn1c(C(=O)NCCc2ccccn2)nc2c(N3CCC4(CC3)C(=O)Nc3ccccc34)ncnc21 [Compound 21]", "IC50": "500 to 1500 nM"}
{"Compound": "Cn1c(-c2ccc(N)nc2)nc2c(N3CCC(n4c(=O)[nH]c5ncccc54)CC3)ncnc21 [Compound 343]", "IC50": "< 50 nM"}
{"Compound": "CN(C)c1ccc(-c2nc3c(N4CCC(n5c(=O)[nH]c6ncccc65)CC4)ncnc3n2C)cn1 [Compound 365]", "IC50": "< 50 nM"}
{"Compound": "Cn1c(-c2ccc(O)nc2)nc2c(N3CCC(n4c(=O)[nH]c5ccccc54)CC3)ncnc21 [Compound 300]", "IC50": "500 to 1500 nM"}
{"Compound": "Cn1c(C(=O)NCc2ccco2)nc2c(N3CCC(n4c(=O)[nH]c5ccccc54)CC3)ncnc21 [Compound 46]", "IC50": "50 to 250 nM"}
{"Compound": "CC(C)N(C)C(=O)c1nc2c(N3CCC4(CC3)C(=O)Nc3ccccc34)ncnc2n1C [Compound 38]", "IC50": "500 to 1500 nM"}
{"Compound": "Cn1c(C(=O)N2CCC2)nc2c(N3CCC4(CC3)C(=O)Nc3ccccc34)ncnc21 [Compound 90]", "IC50": "250 to 500 nM"}

----------
# Tgt: PI3K delta (Homo sapiens, UniProt O00329)
# Assay name: Luciferase-coupled chemiluminescence kinase assay (ATP consumption, KinaseGlo)
Documented IC50 across a set of molecules

{"Molecule": "Cn1c(C(=O)NC2CCc3ccccc32)nc2c(N3CCC(n4c(=O)[nH]c5ccccc54)CC3)ncnc21 (stereo not shown)", "Tgt": "PI3K delta (Homo sapiens, UniProt O00329)", "IC50": "50 to 250 nM"}
{"Molecule": "Cn1c(C(=O)NCc2cccc(F)c2)nc2c(N3CCC4(CC3)C(=O)Nc3ccccc34)ncnc21", "Tgt": "PI3K delta (Homo sapiens, UniProt O00329)", "IC50": "250 to 500 nM"}
{"Molecule": "Cn1c(C(=O)NCC2CC2)nc2c(N3CCC(N4C(=O)NCc5ccccc54)CC3)ncnc21", "Tgt": "PI3K delta (Homo sapiens, UniProt O00329)", "IC50": "250 to 500 nM"}
{"Molecule": "Cn1c(-c2cn[nH]c2-c2ccccc2)nc2c(N3CCC(n4c(=O)[nH]c5ccccc54)CC3)ncnc21", "Tgt": "PI3K delta (Homo sapiens, UniProt O00329)", "IC50": "< 50 nM"}
{"Molecule": "CCCn1cc(-c2nc3c(N4CCC5(CC4)C(=O)Nc4ccccc45)ncnc3n2CC)cn1", "Tgt": "PI3K delta (Homo sapiens, UniProt O00329)", "IC50": "< 50 nM"}
{"Molecule": "Cn1c(C(=O)NCc2ccc(F)cc2F)nc2c(N3CCC(n4c(=O)[nH]c5ccccc54)CC3)ncnc21", "Tgt": "PI3K delta (Homo sapiens, UniProt O00329)", "IC50": "500 to 1500 nM"}
{"Molecule": "CCc1nnc(-c2nc3c(N4CCC(n5c(=O)[nH]c6ccccc65)CC4)ncnc3n2C)o1", "Tgt": "PI3K delta (Homo sapiens, UniProt O00329)", "IC50": "< 50 nM"}
{"Molecule": "Cn1c(C(=O)N2CCC(O)C2)nc2c(N3CCC(n4c(=O)[nH]c5ccccc54)CC3)ncnc21 (stereo not shown)", "Tgt": "PI3K delta (Homo sapiens, UniProt O00329)", "IC50": "500 to 1500 nM"}
{"Molecule": "Cn1c(C(=O)NCC2CC2)nc2c(N3CCC(n4c(=O)[nH]c5ccc(Cl)cc54)CC3)ncnc21", "Tgt": "PI3K delta (Homo sapiens, UniProt O00329)", "IC50": "500 to 1500 nM"}
{"Molecule": "Cn1c(C(=O)N2CCCC2)nc2c(N3CCC4(CC3)C(=O)NCN4c3ccccc3)ncnc21", "Tgt": "PI3K delta (Homo sapiens, UniProt O00329)", "IC50": "250 to 500 nM"}
{"Molecule": "COc1ccc(S(=O)(=O)N2CCN(c3ncnc4c3nc(-c3cnn(C)c3)n4C)CC2)cc1OC", "Tgt": "PI3K delta (Homo sapiens, UniProt O00329)", "IC50": "500 to 1500 nM"}
{"Molecule": "Cn1c(C(=O)NCC2CC2)nc2c(N3CCC4(CC3)CC(=O)Nc3ccccc3O4)ncnc21", "Tgt": "PI3K delta (Homo sapiens, UniProt O00329)", "IC50": "250 to 500 nM"}
{"Molecule": "Cn1c(C(=O)N2CC[C@@H](F)C2)nc2c(N3CCC4(CC3)C(=O)Nc3ccccc34)ncnc21", "Tgt": "PI3K delta (Homo sapiens, UniProt O00329)", "IC50": "50 to 250 nM"}
{"Molecule": "Cn1c(C(=O)NCCc2ccccc2)nc2c(N3CCC4(CC3)C(=O)Nc3ccccc34)ncnc21", "Tgt": "PI3K delta (Homo sapiens, UniProt O00329)", "IC50": "500 to 1500 nM"}
{"Molecule": "Cn1c(C(=O)NCc2cccs2)nc2c(N3CCC(n4c(=O)[nH]c5ccccc54)CC3)ncnc21", "Tgt": "PI3K delta (Homo sapiens, UniProt O00329)", "IC50": "50 to 250 nM"}
{"Molecule": "CNc1ccc(-c2nc3c(N4CCC(n5c(=O)[nH]c6ncccc65)CC4)ncnc3n2C)cn1", "Tgt": "PI3K delta (Homo sapiens, UniProt O00329)", "IC50": "< 50 nM"}
{"Molecule": "CN(C)C(=O)c1nc2c(N3CCC4(CC3)C(=O)NCN4c3ccccc3)ncnc2n1C", "Tgt": "PI3K delta (Homo sapiens, UniProt O00329)", "IC50": "500 to 1500 nM"}
{"Molecule": "Cn1c(C(=O)N2CCCC2)nc2c(N3CCC4(CC3)C(=O)Nc3ccccc34)ncnc21", "Tgt": "PI3K delta (Homo sapiens, UniProt O00329)", "IC50": "500 to 1500 nM"}
{"Molecule": "Cn1c(-n2cnc(Br)c2)nc2c(N3CCC(n4c(=O)[nH]c5ccccc54)CC3)ncnc21", "Tgt": "PI3K delta (Homo sapiens, UniProt O00329)", "IC50": "50 to 250 nM"}
{"Molecule": "CCn1c(C(=O)NCC2CCOCC2)nc2c(N3CCC4(CC3)C(=O)Nc3ccccc34)ncnc21", "Tgt": "PI3K delta (Homo sapiens, UniProt O00329)", "IC50": "< 50 nM"}
{"Molecule": "CCn1c(C(=O)NCC(F)(F)F)nc2c(N3CCC(n4c(=O)[nH]c5ncccc54)CC3)ncnc21", "Tgt": "PI3K delta (Homo sapiens, UniProt O00329)", "IC50": "< 50 nM"}
{"Molecule": "Cc1ccc2[nH]c(=O)n(C3CCN(c4ncnc5c4nc(C(=O)NCC4CC4)n5C)CC3)c2c1", "Tgt": "PI3K delta (Homo sapiens, UniProt O00329)", "IC50": "250 to 500 nM"}
{"Molecule": "Cn1c(C(=O)N2CCCCC2)nc2c(N3CCC4(CC3)C(=O)NCN4c3ccccc3)ncnc21", "Tgt": "PI3K delta (Homo sapiens, UniProt O00329)", "IC50": "50 to 250 nM"}
{"Molecule": "CCCn1cc(-c2nc3c(N4CCC(n5c(=O)[nH]c6ccccc65)CC4)ncnc3n2C)cn1", "Tgt": "PI3K delta (Homo sapiens, UniProt O00329)", "IC50": "< 50 nM"}
{"Molecule": "Cn1cc(-c2nc3c(N4CC[C@H](c5ccccc5)[C@@H](O)C4)ncnc3n2C)cn1", "Tgt": "PI3K delta (Homo sapiens, UniProt O00329)", "IC50": "250 to 500 nM"}
{"Molecule": "Cn1c(C(=O)NCC2CC2)nc2c(N3CCC(n4ccc5ccccc54)CC3)ncnc21", "Tgt": "PI3K delta (Homo sapiens, UniProt O00329)", "IC50": "500 to 1500 nM"}
{"Molecule": "COC(=O)c1nc2c(N3CCC4(CC3)C(=O)Nc3ccccc34)ncnc2n1C", "Tgt": "PI3K delta (Homo sapiens, UniProt O00329)", "IC50": "500 to 1500 nM"}
{"Molecule": "CCn1cc(-c2nc3c(N4CCC5(CC4)C(=O)Nc4ccccc45)ncnc3n2CC)cn1", "Tgt": "PI3K delta (Homo sapiens, UniProt O00329)", "IC50": "< 50 nM"}
{"Molecule": "CCn1cc(-c2nc3c(N4CCC(c5c[nH]c6ccccc56)CC4)ncnc3n2C)cn1", "Tgt": "PI3K delta (Homo sapiens, UniProt O00329)", "IC50": "250 to 500 nM"}
{"Molecule": "Cc1ccc(CCNC(=O)c2nc3c(N4CCC(n5c(=O)[nH]c6ccccc65)CC4)ncnc3n2C)cc1", "Tgt": "PI3K delta (Homo sapiens, UniProt O00329)", "IC50": "500 to 1500 nM"}
{"Molecule": "CC(C)c1nnc(-c2nc3c(N4CCC(n5c(=O)[nH]c6ccccc65)CC4)ncnc3n2C)o1", "Tgt": "PI3K delta (Homo sapiens, UniProt O00329)", "IC50": "< 50 nM"}
